TESTED_TARGET: recombinant human liver glycogen phosphorylase (HLGPa) (Homo sapiens)
METHOD_DESCRIPTION: Measurement of liver glycogen phosphorylase activity (enzyme inhibitory activity against HLGPa)
CONDITION_LABEL: Sf9 cell lysate expressing recombinant enzyme; reverse reaction (glycogen synthesis from G1-P), phosphate by malachite green, 60 min room temperature
pIC50: −log10 of the molar value.
MEASURED_QUANTITY: pIC50

Answered examples (4):
INSERT INTO assay_data (structure_smiles_string, quantitative_readout) VALUES
  ('Cc1ccccc1C(=N)NNC(=O)c1cc2cc(Cl)ccc2[nH]1', 7.30),
  ('CN(C)C(=O)COc1cccc(C(=O)NNC(=O)c2cc3cc(Cl)ccc3[nH]2)c1', 7.21),
  ('O=C(NNC(=O)c1cc2cc(Cl)ccc2[nH]1)c1ccc(F)cc1', 7.82),
  ('Cn1cccc1C(=O)NNC(=O)c1cc2cc(Cl)ccc2[nH]1', 7.25);

A. O=C(NNC(=O)c1cccs1)c1cc2cc(F)ccc2[nH]1
B. O=C(NNC(=O)c1ccccc1C(F)(F)F)c1cc2cc(Cl)ccc2[nH]1
Which is greater in pIC50, the first item A or the second item B ? State the label of the item chosen.
A
(A: 7.14, B: 6.46)

a. O=C(Nn1c(=O)oc2ccccc2c1=O)c1cc2cc(Cl)ccc2[nH]1
b. O=C(NN1C(=O)CCN(c2ccc(Cl)cc2)C1=O)c1cc2cc(Cl)ccc2[nH]1
c. O=C(NN1C(=O)CCN(c2ccc(F)cc2)C1=O)c1cc2cc(Cl)ccc2[nH]1
Task for the reader: rank each entry by its pIC50, from the minimum upward. List the labels in the requested order.
c, b, a
(c: 6.72, b: 6.92, a: 7.15)

* * *

TESTED_TARGET: recombinant human liver glycogen phosphorylase (HLGPa) (Homo sapiens, UniProt P06737)
Sequence (P06737 whole entry): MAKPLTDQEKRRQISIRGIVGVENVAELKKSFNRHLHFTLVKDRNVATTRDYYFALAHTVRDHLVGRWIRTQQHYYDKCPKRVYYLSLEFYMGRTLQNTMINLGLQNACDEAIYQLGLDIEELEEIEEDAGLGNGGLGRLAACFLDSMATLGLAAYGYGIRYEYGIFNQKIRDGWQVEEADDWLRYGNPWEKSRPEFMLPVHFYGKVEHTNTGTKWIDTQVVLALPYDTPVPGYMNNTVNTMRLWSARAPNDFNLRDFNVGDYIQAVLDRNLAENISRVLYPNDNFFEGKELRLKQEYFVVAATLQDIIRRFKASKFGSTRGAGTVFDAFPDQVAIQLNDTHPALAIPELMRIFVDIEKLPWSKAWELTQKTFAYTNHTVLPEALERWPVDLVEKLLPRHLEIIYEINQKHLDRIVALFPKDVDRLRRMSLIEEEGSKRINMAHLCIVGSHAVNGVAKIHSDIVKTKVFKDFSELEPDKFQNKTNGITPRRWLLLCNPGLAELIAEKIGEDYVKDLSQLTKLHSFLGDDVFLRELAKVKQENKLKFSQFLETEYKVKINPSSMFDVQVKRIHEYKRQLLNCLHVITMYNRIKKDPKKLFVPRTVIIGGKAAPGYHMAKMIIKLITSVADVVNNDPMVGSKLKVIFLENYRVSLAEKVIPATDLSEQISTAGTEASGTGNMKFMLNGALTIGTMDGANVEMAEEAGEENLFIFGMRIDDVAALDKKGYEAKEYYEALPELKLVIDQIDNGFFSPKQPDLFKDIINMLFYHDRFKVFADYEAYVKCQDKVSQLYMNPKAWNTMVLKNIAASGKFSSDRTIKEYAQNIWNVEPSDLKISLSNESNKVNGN
METHOD_DESCRIPTION: Measurement of liver glycogen phosphorylase activity (enzyme inhibitory activity against HLGPa)
CONDITION_LABEL: Sf9 cell lysate expressing recombinant enzyme; reverse reaction (glycogen synthesis from G1-P), phosphate by malachite green, 60 min room temperature
MEASURED_QUANTITY: IC50 (nM)

Answered examples (6):
INSERT INTO assay_data (molecule, readout_units, quantitative_readout) VALUES
  ('Cc1ccc2[nH]c(C(=O)NNC(=O)c3cc(F)c(F)cc3N)cc2c1', 'nM', 54),
  ('N=C(NNC(=O)c1cc2cc(Cl)ccc2[nH]1)c1ccc(F)cc1', 'nM', 33),
  ('O=C(Nn1c(=O)[nH]c2ccc(Cl)cc2c1=O)c1cc2cc(Cl)ccc2[nH]1', 'nM', 40),
  ('Cc1ccc2[nH]c(C(=O)NNC(=O)c3cccn3C)cc2c1', 'nM', 78),
  ('Cc1nc(C(=O)NNC(=O)c2cc3cc(Cl)ccc3[nH]2)c(N)s1', 'nM', 120),
  ('CN(C)c1ccccc1C(=O)NNC(=O)c1cc2cc(Cl)ccc2[nH]1', 'nM', 89);

a. COc1ccc([C@@H]2NC(=O)N(NC(=O)c3cc4cc(Cl)ccc4[nH]3)C2=O)cc1
b. O=C(NNC(=O)C1CCCCC1)c1cc2cc(F)ccc2[nH]1
c. O=C(NNC(=O)C1(c2ccccc2)CCCC1)c1cc2cc(Cl)ccc2[nH]1
d. Cn1c(=O)n(NC(=O)c2cc3cc(Cl)ccc3[nH]2)c(=O)c2ccccc21
Order field: IC50 | Direction: descending (largest first) List the labels in the requested order.
c, b, a, d
(c: 410 nM, b: 200 nM, a: 96 nM, d: 26 nM)

a. COc1ccc([C@H]2NC(=O)N(NC(=O)c3cc4cc(Cl)ccc4[nH]3)C2=O)cc1
b. CS(=O)(=O)O.N=C(NNC(=O)c1cc2cc(Cl)ccc2[nH]1)c1ccccc1 [Example 6-17, methanesulfonate]
Which is greater in IC50, the first item a or the second item b ? State the label of the item chosen.
a
(a: 170 nM, b: 80 nM)
